All values here come from the RNAGym collection of RNA variant scans (doi:10.1126/science.aae0568).

Below is a list of entries, each paired with its recorded yeast fitness value.
B1: tRNA (parent)
chain: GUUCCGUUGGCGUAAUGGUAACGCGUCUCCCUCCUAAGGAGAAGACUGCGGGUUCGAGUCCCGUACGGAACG

Variants of: B1
measurement description: yeast fitness relative to wild type (ratio to wild type); higher = fitter; tRNA-Arg(CCU), competitive growth, 37 C, YPD
Fewer inactive variants are shown than the library holds.

As a guide, the following entries are already answered.
> print(dat)
             alteration  endpoint.result
 1       A20G A36U C55G            ≤ 0.5
 2       G12A A20C C29A            ≤ 0.5
 3       A15C C31A C34A            ≤ 0.5
 4  C11U A21U G39C C55U            ≤ 0.5
 5  U19A C34G A43C C49U            ≤ 0.5
 6  C24A C27G U53C C55U            ≤ 0.5
 7        U8G U26C C60U            ≤ 0.5
 8       G17C A45U A65C            ≤ 0.5
 9       A20C A36U U53A            ≤ 0.5
10       C30G C33G C60G            ≤ 0.5

Asked: Any idea what its yeast fitness is? The variant is U3G C22U A57G C60A
Given back: ≤ 0.5

Asked: Any idea what its yeast fitness is? The variant is C30G C49A U53C G63A C66G
Given back: ≤ 0.5

Asked: Any idea what its yeast fitness is? The variant is U3G G39A A40G A57U C66U
Given back: ≤ 0.5

Asked: Any idea what its yeast fitness is? The variant is U3G G10C U26C
Given back: ≤ 0.5

Asked: Any idea what its yeast fitness is? The variant is A20U G23C U53A C55U
Given back: ≤ 0.5

Asked: Any idea what its yeast fitness is? The variant is U28G U32A A43C
Given back: ≤ 0.5
